Cited source: patent US20110318827A1

Molecular target: T1, Somatostatin receptor subtype 2 (SST-2) on rat pancreatic carcinoma AR4-2J cells (rat, UniProt P30680 1-369)
T1 construct: whole, on cells; Whole-cell suspension; the cells express predominantly, not only, SST-2; also called AR2-2J cells
T1 sequence (P30680 whole entry): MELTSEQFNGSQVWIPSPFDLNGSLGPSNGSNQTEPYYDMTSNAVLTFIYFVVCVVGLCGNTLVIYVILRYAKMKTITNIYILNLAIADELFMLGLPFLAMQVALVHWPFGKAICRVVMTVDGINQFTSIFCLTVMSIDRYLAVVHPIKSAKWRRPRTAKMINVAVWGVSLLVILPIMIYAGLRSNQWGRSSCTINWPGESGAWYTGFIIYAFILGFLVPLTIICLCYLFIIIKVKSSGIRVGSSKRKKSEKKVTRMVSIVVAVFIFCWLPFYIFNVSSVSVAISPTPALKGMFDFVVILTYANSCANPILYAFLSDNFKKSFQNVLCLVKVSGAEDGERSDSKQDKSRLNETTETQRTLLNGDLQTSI
Assay: competition with [125I]-[Tyr1]-somatostatin on AR4-2J cell suspension, filtration, Cheng-Prusoff
Bridge positions count the residues as written; N and C are the ends. Square brackets hold non-standard residues; d marks the D form. Ends that are not written are not given here.
measurement-type: pKi
Notebook: values listed as pKi are -log10 of the concentration (mol/L).

The examples below pair each entry with its known result.
{"binder": "[dF]CY[dW]KVCT-NH2 (disulfide 2-7, Cyclic octapeptide somatostatin analog, made by solid phase synthesis) [RC-121]", "pKi": 9.52}
{"binder": "TGRRRGGFCYWKVCT (HELM PEPTIDE1{T.G.R.R.R.G.G.[dF].C.Y.[dW].K.V.C.T.[am]}$PEPTIDE1,PEPTIDE1,9:R3-14:R3$$$V2.0; SMILES CC(C)[C@@H]1NC(=O)[C@H](CCCCN)NC(=O)[C@@H](Cc2c[nH]c3ccccc23)NC(=O)[C@H](Cc2ccc(O)cc2)NC(=O)[C@@H](NC(=O)[C@@H](Cc2ccccc2)NC(=O)CNC(=O)CNC(=O)[C@H](CCCNC(=N)N)NC(=O)[C@H](CCCNC(=N)N)NC(=O)[C@H](CCCNC(=N)N)NC(=O)CNC(=O)[C@@H](N)[C@@H](C)O)CSSC[C@@H](C(=O)N[C@H](C(N)=O)[C@@H](C)O)NC1=O, not complexed with Tc) [HTGRRRGG-RC-121]", "pKi": 10.46}

Now look at this one.
Reported pKi for TGRRRGGFCYWKVCT ([TcO]3+ core chelated by the N-terminal HTGRRR tag; free N-terminus; the RC-121 part carries D-Phe, D-Trp, a C-terminal amide and the preserved disulfide bridge) [TcO[HTGRRRGG-RC-121]] was 10.18
